// values below are reported Maximum mean fluorescence intensity
Assay System: T1, human MSLN full-length protein (NCBI: AAH09272.1) expressed on HEK293T-hMSLN-B8 cells (human, UniProt Q13421 296-598)
T1 construct: Whole encoded precursor
T1 sequence (Q13421 other isoform, or with tags, fused parts or gaps limits assumed): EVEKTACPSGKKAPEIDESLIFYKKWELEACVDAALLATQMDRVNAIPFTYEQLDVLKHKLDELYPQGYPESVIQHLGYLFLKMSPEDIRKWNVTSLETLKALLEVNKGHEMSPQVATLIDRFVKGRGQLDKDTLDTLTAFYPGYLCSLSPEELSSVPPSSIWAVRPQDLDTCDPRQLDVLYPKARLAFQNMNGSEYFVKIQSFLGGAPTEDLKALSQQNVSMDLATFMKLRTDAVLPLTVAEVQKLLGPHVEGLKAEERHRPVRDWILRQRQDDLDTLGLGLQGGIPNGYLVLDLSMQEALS
Procedure Text: FACS on HEK293T-hMSLN-B8 cells
Keep the answer to the number alone.

Before answering, review these 2 worked examples.
Quick one: Maximum mean fluorescence intensity of S009-F3.38.10 (antibody, human IgG1, kappa, V domains shown, human-murine chimeric antibody, human IgG1/kappa constant regions) VH: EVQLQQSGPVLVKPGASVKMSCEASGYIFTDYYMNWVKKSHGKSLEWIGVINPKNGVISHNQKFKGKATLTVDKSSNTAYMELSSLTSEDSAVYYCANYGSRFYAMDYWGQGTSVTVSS VL: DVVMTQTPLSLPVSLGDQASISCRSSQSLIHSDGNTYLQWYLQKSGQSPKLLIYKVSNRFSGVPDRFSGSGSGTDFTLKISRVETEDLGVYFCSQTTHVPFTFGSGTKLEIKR ?
80600

Entry under review: S009-F3.74.20 (antibody, human IgG1, kappa, V domains shown, human-murine chimeric antibody, human IgG1/kappa constant regions) VH: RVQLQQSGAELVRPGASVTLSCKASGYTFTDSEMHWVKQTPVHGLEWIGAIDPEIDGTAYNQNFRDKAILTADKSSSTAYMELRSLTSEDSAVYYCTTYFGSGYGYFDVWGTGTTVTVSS VL: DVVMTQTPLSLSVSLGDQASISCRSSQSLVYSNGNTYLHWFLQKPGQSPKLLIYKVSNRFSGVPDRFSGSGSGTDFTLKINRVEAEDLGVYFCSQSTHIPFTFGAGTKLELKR . Reported Maximum mean fluorescence intensity?
36400

Next binder, please.
Recorded Maximum mean fluorescence intensity for S009-F3.45.21 (antibody, human IgG1, kappa, V domains shown, human-murine chimeric antibody, human IgG1/kappa constant regions) VH: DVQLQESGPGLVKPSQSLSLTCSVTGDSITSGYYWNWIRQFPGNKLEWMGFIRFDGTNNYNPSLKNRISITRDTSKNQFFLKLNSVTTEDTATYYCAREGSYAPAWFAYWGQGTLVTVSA VL: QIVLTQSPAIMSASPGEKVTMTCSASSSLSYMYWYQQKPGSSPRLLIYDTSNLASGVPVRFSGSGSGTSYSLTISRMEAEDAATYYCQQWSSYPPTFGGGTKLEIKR , please?
97600
